Values compiled from paper PMC11521937.

Experiment: In vitro MTT cytotoxicity assay, HepG2
Format: cell-based, human
Details: human, read-out: Percent (%) cell viability at 100 μM, HepG2 cells
Procedure: In vitro cytotoxicity evaluation […] with minor modifications, which will be detailed below. To obtain information regarding the toxicity of our compounds, their impact on the viability of human cells was investigated. […] The living cell mass was determined 48 h after treatment with compounds by adding 0.1 volumes of 3-(4,5-dimethylthiazol-2-yl)-2,5-diphenyltetrazolium bromide (MTT) solution (5 mg/mL sterile PBS) (Sigma, St. Louis, MO) to the wells. […]
measurement kind: viability at 48 h, 100 µM

So, O=C(O)c1cc(OCc2ccc(Br)c3ccccc23)ccc1O [Compound 2] ? Its viability at 48 h, 100 µM was 23%

So, O=C(O)c1cc(OCc2cccc3ccccc23)ccc1O [Compound 1] ? Its viability at 48 h, 100 µM was 20%

So, CC(C)(C)OC(=O)Nc1ccc(OCc2cccc3ccccc23)cc1C(=O)O [Compound 3] ? Its viability at 48 h, 100 µM was 49%
